The entries below come with measured switch fluorescence ratio values attached.
tested on: ATP; test: switch fluorescence ratio, 500 uM ATP over buffer (Cy3 cluster intensity, sum of 5 cycles each) (fold (ratio)); higher = stronger signal-on switching upon ATP binding; sequences stand for … in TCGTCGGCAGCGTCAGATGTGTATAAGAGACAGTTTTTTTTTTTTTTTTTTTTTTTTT…TC; details: aptamer strand: ATP DNA aptamer (quencher-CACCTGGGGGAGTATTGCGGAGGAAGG + anchor), 100 nM annealed; ATP concentration: 500 uM;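 note: ATP exposure 15 min at 22 °C before imaging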
metric: switch fluorescence ratio

[[record]]
chain_sequence = "TCTTAGATGA"
quantitative_result = 0.977

[[record]]
chain_sequence = "TTTTTGTGCT"
quantitative_result = 0.996

[[record]]
chain_sequence = "GGTGCACCGA"
quantitative_result = 0.988

[[record]]
chain_sequence = "CGTGGGGGAT"
quantitative_result = 1.01

[[record]]
chain_sequence = "CCGATGTGGT"
quantitative_result = 1.57

[[record]]
chain_sequence = "GATTAGGTTG"
quantitative_result = 0.968

[[record]]
chain_sequence = "ATTGGTTCCA"
quantitative_result = 1.03

[[record]]
chain_sequence = "CACATGTGCC"
quantitative_result = 1.01

[[record]]
chain_sequence = "AAAAGCTTTT"
quantitative_result = 0.988

[[record]]
chain_sequence = "GATCCTGAAC"
quantitative_result = 1.37

[[record]]
chain_sequence = "CACGGAAGCG"
quantitative_result = 1.05

[[record]]
chain_sequence = "ACTAAATAAA"
quantitative_result = 1.14

[[record]]
chain_sequence = "AGAGAATATT"
quantitative_result = 1.03

[[record]]
chain_sequence = "AAAATGCGGG"
quantitative_result = 1.01

[[record]]
chain_sequence = "CGTTTGGGTC"
quantitative_result = 1.01

[[record]]
chain_sequence = "CGAAGGTAGG"
quantitative_result = 0.984

[[record]]
chain_sequence = "CCCATTTAGT"
quantitative_result = 1.04

[[record]]
chain_sequence = "GAGACGGGGA"
quantitative_result = 0.982

[[record]]
chain_sequence = "TGTTTTTGGG"
quantitative_result = 0.989

[[record]]
chain_sequence = "TGGTAGACGG"
quantitative_result = 1.15

[[record]]
chain_sequence = "GCCATATGTG"
quantitative_result = 1.02

[[record]]
chain_sequence = "TTCGTTTTGG"
quantitative_result = 1.01

[[record]]
chain_sequence = "TTGCTACACG"
quantitative_result = 1.04

[[record]]
chain_sequence = "TGGATTATTA"
quantitative_result = 1.02

[[record]]
chain_sequence = "TATAAGTTTG"
quantitative_result = 0.999

[[record]]
chain_sequence = "TGTAGTTTAG"
quantitative_result = 1.01

[[record]]
chain_sequence = "GTTGTACTTG"
quantitative_result = 0.988

[[record]]
chain_sequence = "CTAACGCGCA"
quantitative_result = 1.11

[[record]]
chain_sequence = "TATCTGTGCC"
quantitative_result = 0.96

[[record]]
chain_sequence = "ATCTTGGTCT"
quantitative_result = 1.01

[[record]]
chain_sequence = "TTAAGTGTTT"
quantitative_result = 1

[[record]]
chain_sequence = "TTTGAGTTTG"
quantitative_result = 1.01

[[record]]
chain_sequence = "TGTTTGCCAG"
quantitative_result = 1

[[record]]
chain_sequence = "GGGTGTAAAA"
quantitative_result = 1

[[record]]
chain_sequence = "AAAGGGCATC"
quantitative_result = 1.01

[[record]]
chain_sequence = "CGGTTTATAT"
quantitative_result = 0.99

[[record]]
chain_sequence = "TTAAGGCCGG"
quantitative_result = 1.03

[[record]]
chain_sequence = "GGGGCTAGGG"
quantitative_result = 1

[[record]]
chain_sequence = "AGAGGTTCC"
quantitative_result = 1

[[record]]
chain_sequence = "GAGGGGTGGA"
quantitative_result = 0.996

[[record]]
chain_sequence = "TTGCGGTCGT"
quantitative_result = 1

[[record]]
chain_sequence = "TGCTACGTTT"
quantitative_result = 0.991

[[record]]
chain_sequence = "AGGAGGCGAG"
quantitative_result = 0.99

[[record]]
chain_sequence = "AAAGTCCTA"
quantitative_result = 0.982

[[record]]
chain_sequence = "CGGGTAATGG"
quantitative_result = 1.03

[[record]]
chain_sequence = "TCATGAATTT"
quantitative_result = 0.988

[[record]]
chain_sequence = "ATACCGGTTG"
quantitative_result = 1.02

[[record]]
chain_sequence = "GCCGAATTTG"
quantitative_result = 1.03

[[record]]
chain_sequence = "CTCATACGGG"
quantitative_result = 1.05


Data origin, for the record: the supplement of paper PMC10126150
